Provenance of the data: the supplement of paper PMC9170038

Answer each item with its documented apparent KD of MS2 coat protein.
test system: MS2 coat protein; test: apparent KD of MS2 coat protein; designed switch direction (-1 OFF switch, 1 ON switch): 1; higher = weaker reporter binding; conditions: input ligand: microRNA oligo, concentration not stated
Numbers only, in nM.

Guide cases for apparent KD of MS2 coat protein, answers given:
Could you share what apparent KD of MS2 coat protein was measured for AAAAUGUGAUGUCACAUGAGGAUCACCCAUGUGGUGACAACUAAGGAUAUAACGAACCAAGGCGAUUAGAAGGUAGGAUCACAA [AK SSNG3-V2-17] (Eterna round: R96, puzzle: Same State NG 3) , tested on MS2 coat protein? 120

Another sequence to look at: AUAAGAAACACAGGAUAUACCGCACUUAACACGGUAGAAGGGUGGGACAUGAGGAUCACCCAUGUGGUCCGGGCGCCGGACCGC [Geenusrior] (Eterna round: R96, puzzle: Same State NG 1) 27.8

GUGGUCAGACAUGAGGAUCACCCAUGUGGAAUAAAUAAGGGUUAGGAUAUGGAAUAUAGGAUAUACCAGAAGGGAUGGUUGGUG (Eterna round: R96, puzzle: Same State NG 3) , same question. 108

Same lookup for GGAAGGAGGUCAGGAUAUGGAUGGAAGGUACAUGAGGAUCACCCAUGUUACGGAGGAAGGAAACGUUAGAAGGGAUAAGGAAGG [AK SSNG2-V2-2.1] (Eterna round: R96, puzzle: Same State NG 2) , please. 24.9

Please state apparent KD of MS2 coat protein for every sequence in the list that follows.
1. GUAGCAUACCGAGGAUAUUCAUAUACAUGAGGAUCACCCAUGUUUAGGCCACAUUAGUGGCCUUGGGAGAAGGCGGAAUGCUAC [Xeonanis - 20 Mod44] (Eterna round: R96, puzzle: Same State NG 2)
2. GUAGCAUACCGAGGAUAUUCAUAUAAUAAAUAACAUGAGGAUCACCCAUGUAGGCGAAAGCCUUGGGAGAAGGCGGAAUGCUAC [Xeonanis - 20 Mod57] (Eterna round: R96, puzzle: Same State NG 2)
3. AUUAUUUAUGCAGGAUAUGAUUAACAUGAGGAUCACCCAUGUGGUGUUGUGAGUAAGGAGAGUGAUCAGAAGGGCAUUUUGUUU [JMF's solution 51] (Eterna round: R96, puzzle: Same State NG 2)

1. 15.7
2. 108
3. 321

---

tested on: MS2 coat protein; experiment: apparent KD of MS2 coat protein; designed switch direction (-1 OFF switch, 1 ON switch): -1; higher = weaker reporter binding; settings: input ligand: microRNA oligo, concentration not stated
What apparent KD of MS2 coat protein was measured for each of the following?
Numbers only, in nM.

Please review the following examples before continuing.
Give the reported apparent KD of MS2 coat protein for GGGAGGGAUGCAGGAUAUGCGAGGGAGGGAGGAGUAGAAGGGCAUGAGGAUCACCCAUGUGACAUGAGGAUCACCCAUGUGGGA [Success - 29% A] (Eterna round: R96, puzzle: Exclusion NG 1) (system: MS2 coat protein). 80.2

// repeat for UUGUUCCAUGUAGGAUAUGCAUAUUCUUAUUAUGCAGAAGGACAUGAGGAUCACCCAUGUAUGUUAUUAUUAUAUGUUACAUGU [Design 1] (Eterna round: R96, puzzle: Exclusion NG 1) and report 56.7

Also, ACAUGAGGAUCACCCAUGUUCGGCUGGUCCGUCUCGGCUGUCGAGGAUAUAGCUCGGUGUCCGCGCUAGAAGGCGGGAGCUGGC [Aenatbe mod 66] (Eterna round: R96, puzzle: Exclusion NG 3) please. 47

Lookup CUCGUGCAGCAAAGCUGUACGAGUACAUGAGGAUCACCCAUGUAGGAUAUGGUACGCAAAGCGUGCCAGAAGGACGUGAGUUAG [Mat - Exclusion NG 3 - Mod of JL - D95] (Eterna round: R96, puzzle: Exclusion NG 3) 37.6

***
Look up apparent KD of MS2 coat protein with MS2 coat protein for this sequence: UAUGUUAGCACAGGAUAUUGUUAUUAUUUAAUUCAAGAAGGGUGUACAUGAGGAUCACCCAUGUUAUGGUUUUAUCUUUUACAA [JR_ExcNG1_Sub013] (Eterna round: R96, puzzle: Exclusion NG 1) 957
